Recorded values, source PubChem BioAssay (EPA / NIEHS).

assay-procedure: BSK_LPS_SRB: Viability Assessment in the BioMAP Diversity Plus: LPS Assay (AID 2283079);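 further: total protein by sulforhodamine B absorbance as a cytotoxicity measure; measured one day after compound addition; fitted in both directions against DMSO so loss or gain of signal counts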
assay-context: primary human HUVEC with PBMC
The source made the active and inactive calls. How the source made its calls: active means hit-call score of the fitted dose curve at least 0.9, where 1 is the maximum; inactive means score below 0.9.
Classes used: active, inactive

{"compound": "CSCCC=O", "category-label": "inactive"}
{"compound": "CC1(C)CCC[C@]2(C)[C@H]3CCO[C@]3(C)CC[C@@H]12", "category-label": "inactive"}
{"compound": "O=CN1CCOCC1", "category-label": "inactive"}
{"compound": "CN(c1nccc(=O)[nH]1)C1CCN(c2nc3ccccc3n2Cc2ccc(F)cc2)CC1", "category-label": "inactive"}
{"compound": "c1ccc2cc(Nc3ccc(Nc4ccc5ccccc5c4)cc3)ccc2c1", "category-label": "inactive"}
{"compound": "C=C(C)C(=O)OCCOCCOCCOC(=O)C(=C)C", "category-label": "inactive"}
{"compound": "COc1ccc(OC)c(N=Nc2c(O)ccc3ccccc23)c1", "category-label": "inactive"}
{"compound": "CC(=O)c1c(C)c([N+](=O)[O-])c(C(C)(C)C)c([N+](=O)[O-])c1C", "category-label": "inactive"}
{"compound": "C=C(C)C(=O)OCC(CC)(COC(=O)C(=C)C)COC(=O)C(=C)C", "category-label": "inactive"}
{"compound": "O=C(Nc1ccc2c(O)c(N=Nc3ccc(N=Nc4ccc(S(=O)(=O)O)cc4)cc3)c(S(=O)(=O)O)cc2c1)c1ccccc1", "category-label": "inactive"}
{"compound": "CCOC(=O)C(C#N)=C(c1ccccc1)c1ccccc1", "category-label": "inactive"}
{"compound": "c1ccc(CCc2ccccc2)cc1", "category-label": "active"}
{"compound": "CCCCOC(=O)CCCCCCCC(=O)OCCCC", "category-label": "inactive"}
{"compound": "CC(C)(N=C=O)c1cccc(C(C)(C)N=C=O)c1", "category-label": "inactive"}
{"compound": "C=C(C)[C@H]1CC=C(C)C(=O)C1", "category-label": "inactive"}
{"compound": "Cc1cc(CCC(=O)OCCOCCOCCOC(=O)CCc2cc(C)c(O)c(C(C)(C)C)c2)cc(C(C)(C)C)c1O", "category-label": "inactive"}
{"compound": "CC(=O)C1(C)CC2=C(CCCC2(C)C)CC1C (stereo not given)", "category-label": "active"}
{"compound": "CCCCCC(C=O)=Cc1ccccc1", "category-label": "active"}
{"compound": "C=C(C)C(=O)OCCOCCOCCOCCOC(=O)C(=C)C", "category-label": "inactive"}
{"compound": "O=C1OC[C@H](Cc2cccc(O)c2)[C@H]1Cc1cccc(O)c1", "category-label": "inactive"}
{"compound": "CCCCCCC(CO)CCCC (stereo not given)", "category-label": "inactive"}
{"compound": "CCCCN(CCCC)C(=O)N(CCCC)CCCC", "category-label": "active"}
{"compound": "CS(=O)(=O)OCCCCOS(C)(=O)=O", "category-label": "inactive"}
{"compound": "c1ccc(Oc2ccccc2)cc1", "category-label": "inactive"}
{"compound": "Oc1c(Cl)cc(Cl)c(Cl)c1Cc1c(O)c(Cl)cc(Cl)c1Cl", "category-label": "active"}

###

Read-out: Pselectin, SELP (gene 6403)
assay-procedure: BSK_4H_Pselectin: BioMAP Diversity Plus: 4H Assay for Pselectin Biomarker Activity (AID 2283026)
assay-context: primary human endothelial cells (HUVEC); actives raise or lower the signal
Calls of active or inactive are those of the source. The calls were made as follows: active = hit-call score of the fitted dose curve at least 0.9, where 1 is the maximum; inactive = score below 0.9.
Outcome codes: class 1 (active), class 0 (inactive)

{"molecule": "O=CN1CCOCC1", "category-label": "class 0"}
{"molecule": "CC(=O)Nc1ccc(C(=O)CCl)cc1", "category-label": "class 1"}
{"molecule": "CC=Cc1ccc(OCC)c(O)c1", "category-label": "class 0"}
{"molecule": "CCCCN(CCCC)C(=O)N(CCCC)CCCC", "category-label": "class 1"}
{"molecule": "CN(C)C(=S)SC(=S)N(C)C", "category-label": "class 0"}
{"molecule": "C[C@@H]1CCN(C(=O)[C@H](CCCN=C(N)N)NS(=O)(=O)c2cccc3c2NC[C@H](C)C3)[C@@H](C(=O)O)C1", "category-label": "class 0"}
{"molecule": "CC(CN=Cc1ccccc1O)N=Cc1ccccc1O (centres undefined)", "category-label": "class 0"}
{"molecule": "CCCCCCC(CO)CCCC (centres undefined)", "category-label": "class 0"}
{"molecule": "CCCCOC(=O)CCCCCCCC(=O)OCCCC", "category-label": "class 0"}
{"molecule": "Clc1cc(Cl)c(-c2c(Cl)c(Cl)cc(Cl)c2Cl)cc1Cl", "category-label": "class 1"}
{"molecule": "C=C(C)C(=O)OCC(CC)(COC(=O)C(=C)C)COC(=O)C(=C)C", "category-label": "class 0"}
{"molecule": "C=C(C)C(=O)OCCOCCOCCOCCOC(=O)C(=C)C", "category-label": "class 0"}
{"molecule": "CCN(CC)C(=O)N(CC)CC", "category-label": "class 0"}
{"molecule": "O=C1OC2(c3ccccc31)c1ccc(O)c(Br)c1Oc1c2ccc(O)c1Br", "category-label": "class 1"}
{"molecule": "Cc1cc(CCC(=O)OCCOCCOCCOC(=O)CCc2cc(C)c(O)c(C(C)(C)C)c2)cc(C(C)(C)C)c1O", "category-label": "class 0"}
{"molecule": "CC1(C)C2=CCCC(C)(C)[C@]23CC[C@H]1C3", "category-label": "class 1"}
{"molecule": "C=C(C)C(=O)OCCOCCOCCOC(=O)C(=C)C", "category-label": "class 0"}
{"molecule": "c1ccc(Oc2ccccc2)cc1", "category-label": "class 1"}
{"molecule": "Oc1c(Cl)cc(Cl)c(Cl)c1Cc1c(O)c(Cl)cc(Cl)c1Cl", "category-label": "class 1"}
{"molecule": "c1ccc2cc(Nc3ccc(Nc4ccc5ccccc5c4)cc3)ccc2c1", "category-label": "class 0"}
{"molecule": "CCC(C)c1cc([N+](=O)[O-])cc([N+](=O)[O-])c1OC(=O)OC(C)C (centres undefined)", "category-label": "class 1"}
{"molecule": "O=C1OC[C@H](Cc2cccc(O)c2)[C@H]1Cc1cccc(O)c1", "category-label": "class 0"}
{"molecule": "C=CC(C)(O)CCC=C(C)C (centres undefined)", "category-label": "class 0"}
{"molecule": "IC(I)I", "category-label": "class 0"}

###

experimental-target: Retinoic acid receptor RXR-alpha (Homo sapiens)
assay-procedure: OT_NURR1_NURR1RXRa_1440: Odyssey Thera (OT) 24-hour HEK293T Protein Complementation Assay for Nurr1/retinoid X receptor (RXR) (AID 2283386)
Inconclusive results are not listed. Active and inactive are the calls of the source. The calls were made as follows: active = hit-call score of the fitted dose curve at least 0.9, where 1 is the maximum; inconclusive = response in the unintended direction; inactive = score below 0.9.
Labels: active, inactive

{"molecule": "CC(C=O)Cc1ccc(C(C)(C)C)cc1 (stereo not given)", "category-label": "inactive"}
{"molecule": "CCCCCCC(=O)c1ccccc1", "category-label": "inactive"}
{"molecule": "CCCCOC(=O)CCCCCCCC(=O)OCCCC", "category-label": "inactive"}
{"molecule": "CC1CCC(C(C)C)C(O)C1 (stereo not given)", "category-label": "inactive"}
{"molecule": "CC(C)Nc1nc(N)nc(Cl)n1", "category-label": "inactive"}
{"molecule": "O=c1c(O)c(-c2ccc(O)cc2)oc2cc(O)cc(O)c12", "category-label": "inactive"}
{"molecule": "O=[N+]([O-])c1ccc(O)cc1C(F)(F)F", "category-label": "active"}
{"molecule": "CCC(=O)O[C@@H]1C[C@H]2CC[C@]1(C)C2(C)C", "category-label": "inactive"}
{"molecule": "COC(=O)c1ccc(C)cc1C1=NC(C)(C(C)C)C(=O)N1 (stereo not given) (tested in a mixture with another compound)", "category-label": "inactive"}
{"molecule": "CCOc1ccccc1O", "category-label": "inactive"}
{"molecule": "O=C(Nc1ccc2c(O)c(N=Nc3ccc(N=Nc4ccc(S(=O)(=O)O)cc4)cc3)c(S(=O)(=O)O)cc2c1)c1ccccc1", "category-label": "inactive"}
{"molecule": "CCC1(C)NC(=O)NC1=O (stereo not given)", "category-label": "inactive"}
{"molecule": "Nc1ccccc1[N+](=O)[O-]", "category-label": "inactive"}
{"molecule": "Cc1cc(S(=O)(=O)O)ccc1N=Nc1c(O)ccc2ccccc12", "category-label": "inactive"}
{"molecule": "ON=C1CCCCC1", "category-label": "inactive"}
{"molecule": "CS(C)=O", "category-label": "inactive"}
{"molecule": "CN(C)c1cccc(O)c1", "category-label": "inactive"}
{"molecule": "COCCOCCOCCO", "category-label": "inactive"}
{"molecule": "CCCCC1CCC(O)CC1 (stereo not given)", "category-label": "inactive"}
{"molecule": "O=Cc1ccccc1S(=O)(=O)O", "category-label": "inactive"}
{"molecule": "CCNCCO", "category-label": "inactive"}
{"molecule": "CC(C)CC(C)CC(O)CC(C)C (stereo not given)", "category-label": "inactive"}
{"molecule": "CCOC(=O)C1OC1c1ccccc1 (stereo not given)", "category-label": "inactive"}
{"molecule": "CC(C)CCOC(=O)c1ccccc1", "category-label": "inactive"}
{"molecule": "CCOC(=O)[C@@H](C)Oc1ccc(Oc2nc3ccc(Cl)cc3o2)cc1", "category-label": "inactive"}
{"molecule": "C=Cc1ccc(C)cc1", "category-label": "inactive"}
{"molecule": "CCCCCCCCCC(=O)OC", "category-label": "inactive"}
{"molecule": "C#CC(C)(O)CC(C)C (stereo not given)", "category-label": "inactive"}
{"molecule": "CCCCCCCCCCCC(=O)OCC(O)CO (stereo not given)", "category-label": "inactive"}
{"molecule": "O=CCc1ccccc1", "category-label": "inactive"}
